target: SpADH2 variant A290I
experiment-summary: Cofactor kinetic assay, A290I
assay-setup: cofactor (= label) varied, 1a fixed at 5 mM, read-out: Ki (cofactor inhibition)
experimental-readout: Ki

Qu. Identify the measured Ki of NC(=O)c1ccc[n+](Cc2ccc(C(=O)O)cc2)c1 [p-BANA^+] for SpADH2 variant A290I.
Ans. 18 mM

----------
target: SpADH2 WT (Sphingobium sp. SYK-6, UniProt G2IIZ8)
Sequence (G2IIZ8 1-372): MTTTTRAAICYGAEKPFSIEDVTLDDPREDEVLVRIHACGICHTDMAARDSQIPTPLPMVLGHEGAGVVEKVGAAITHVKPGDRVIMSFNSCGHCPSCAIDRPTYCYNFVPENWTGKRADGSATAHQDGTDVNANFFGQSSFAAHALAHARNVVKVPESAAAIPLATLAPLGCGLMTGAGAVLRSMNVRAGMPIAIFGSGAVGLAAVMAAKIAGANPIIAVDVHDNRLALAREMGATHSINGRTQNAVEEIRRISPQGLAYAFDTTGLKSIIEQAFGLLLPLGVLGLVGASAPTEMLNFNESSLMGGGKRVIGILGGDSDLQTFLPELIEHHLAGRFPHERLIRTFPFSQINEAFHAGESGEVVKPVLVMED
experimental-readout: pKi
By convention, pKi is the negative base-10 log of a molar concentration.

Qu. So what's the measured pKi for this one? NC(=O)c1ccc[n+](Cc2ccc(C(=O)O)cc2)c1 [p-BANA^+]
Ans. 1.92

----------
target: SpADH2 variant H43L/A290I
experiment-summary: Cofactor kinetic assay, H43L/A290I
assay-setup: cofactor (= label) varied, 1a fixed at 5 mM, read-out: Ki (cofactor inhibition)
experimental-readout: Ki (mM)
Number only, in mM; omit the unit.

Qu. I would be grateful if you could share the reported Ki for NC(=O)c1ccc[n+](Cc2ccc(C(=O)O)cc2)c1 [p-BANA^+] .
Ans. 15

----------
target: SpADH2 variant H43L
experiment-summary: Cofactor kinetic assay, H43L
assay-setup: cofactor (= label) varied, 1a fixed at 5 mM, read-out: Ki (cofactor inhibition)
experimental-readout: Ki
Returns: string containing the numeric result and its unit.

Qu. Which measured Ki value corresponds to `NC(=O)c1ccc[n+](Cc2ccc(C(=O)O)cc2)c1` ?
Ans. 5.4 mM

----------
System: SpADH2 variants (H43L, A290I, H43L/A290I)
experiment-summary: Cofactor spectrum (HPLC specific activity), all variants together
Assay type: biochemical, Sphingobium sp. SYK-6
assay-setup: 1a 5 mM, cofactor 7.5 mM, pH 7.5, 30℃
experimental-readout: catalytic activity of all variants with the cofactor (in words)

NC(=O)c1ccc[n+](Cc2cccc(C(=O)O)c2)c1    highest activity
NC(=O)c1ccc[n+](Cc2ccc(C(=O)O)cc2)c1    highest activity
